B1: glmS ribozyme (parent)
chain: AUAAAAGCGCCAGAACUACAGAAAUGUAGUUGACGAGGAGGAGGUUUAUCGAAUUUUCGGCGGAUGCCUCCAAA

Variants of: B1
Assay: self-cleavage kobs at 10000 uM GlcN6P; higher = faster cleavage; RNA array
Details: with glucosamine-6-phosphate
This sample holds only a part of the variants without activity.
Record form. Attribute: self-cleavage kobs at 10000 uM GlcN6P. Fill in for each entry.

Requested field: self-cleavage kobs at 10000 uM GlcN6P. Item: C8A A52C
< 1e-05 s⁻¹

Entry to check: G9C C34G C61G
< 1e-05 s⁻¹

Entry to check: U49C C50G
< 1e-05 s⁻¹

Entry to check: G7C G32C G41C
< 1e-05 s⁻¹

Entry to check: C10G G38U G41U U49C C50U C70A
< 1e-05 s⁻¹

Entry to check: G13C U56G A64G C67A
3.32e-05 s⁻¹

Entry to check: A42G C61G
< 1e-05 s⁻¹

Entry to check: A33U C61G
< 1e-05 s⁻¹

Entry to check: C8U G37C G43A C58A
< 1e-05 s⁻¹

Entry to check: A14C G44A U45A
7.22e-05 s⁻¹

Entry to check: G51U U56C U57C G63U
< 1e-05 s⁻¹

Entry to check: U31A C58A
0.000242 s⁻¹

Entry to check: G32A C58A C68U
0.000572 s⁻¹

Entry to check: U56A G66A
0.00718 s⁻¹

Entry to check: G44U U45G
0.017 s⁻¹

Entry to check: C11A C16G C58U C68A
0.000263 s⁻¹

Entry to check: G40C C67G C70G
< 1e-05 s⁻¹

Entry to check: A53U U65C
0.000222 s⁻¹

Entry to check: U46C U47G
0.00183 s⁻¹

Entry to check: C11G A39U C50G
< 1e-05 s⁻¹

Entry to check: U55C C68U
2.9e-05 s⁻¹

Entry to check: A42G U57G
4.59e-05 s⁻¹
